Please provide measured Photo Toxicity UV Tox50 for the entries that follow.
- Tested on: 3T3 fibroblast cells
- Protocol Description: In vitro phototoxicity assay (neutral red; UV light-treated vs dark control plates)
- Type: cell-based
- Assay Context: UV light 50 minutes

Molecule: CCOC(=O)N1CCN(CC(=O)c2ccc(O)c3c2C[C@H]2C[C@H]4[C@H](N(C)C)C(O)=C(C(N)=O)C(=O)[C@@]4(O)C(O)=C2C3=O)CC1 [BR]
Photo Toxicity UV Tox50: >131.28 µM

Molecule: CN(C)[C@@H]1C(O)=C(C(N)=O)C(=O)[C@@]2(O)C(O)=C3C(=O)c4c(O)ccc(-c5coc(CN6CCCCC6)c5)c4C[C@H]3C[C@@H]12 [BF]
Photo Toxicity UV Tox50: >138.34 µM

Molecule: CN(C)[C@H]1C(O)=C(C(N)=O)C(=O)[C@@]2(O)C(O)=C3C(=O)c4c(O)ccc(-c5cccc(C(N)=O)c5)c4C[C@H]3C[C@@H]12 (stereo in doubt) [B]
Photo Toxicity UV Tox50: >156.64 µM

Respectfully, I request Photo Toxicity UV Tox50 for each entry included below.
1. COCCNC(=O)c1ccc(-c2ccc(O)c3c2C[C@H]2C[C@H]4[C@H](N(C)C)C(O)=C(C(N)=O)C(=O)[C@@]4(O)C(O)=C2C3=O)o1 [DF]
2. CN(C)[C@@H]1C(O)=C(C(N)=O)C(=O)[C@@]2(O)C(O)=C3C(=O)c4c(O)ccc(-c5ccc(CNCc6cccnc6)o5)c4C[C@H]3C[C@@H]12 [BI]

Data returned:
>200 µM
>126.75 µM

Respectfully, I request Photo Toxicity UV Tox50 for each entry included below.
1. CCN(CC)CCNC(=O)c1cccc(-c2ccc(O)c3c2C[C@H]2C[C@H]4[C@H](N(C)C)C(O)=C(C(N)=O)C(=O)[C@@]4(O)C(O)=C2C3=O)c1 [E]
2. CN(C)CCNC(=O)c1ccc(O)c2c1C[C@H]1C[C@H]3[C@H](N(C)C)C(O)=C(C(N)=O)C(=O)[C@@]3(O)C(O)=C1C2=O [AH]
3. CN(C)CCNC(=O)c1ccc(-c2ccc(O)c3c2C[C@H]2C[C@H]4[C@H](N(C)C)C(O)=C(C(N)=O)C(=O)[C@@]4(O)C(O)=C2C3=O)cc1 [AD]
4. COc1ccc(-c2ccc(O)c3c2C[C@H]2C[C@H]4[C@H](N(C)C)C(O)=C(C(N)=O)C(=O)[C@@]4(O)C(O)=C2C3=O)cc1CNCC(N)=O [BE]
5. CN(C)CC/C(=N\OC(C)(C)C)c1ccc(O)c2c1C[C@H]1C[C@H]3[C@H](N(C)C)C(O)=C(C(N)=O)C(=O)[C@@]3(O)C(O)=C1C2=O [CJ]
6. CN(C)CCCCNC(=O)c1cccc(-c2ccc(O)c3c2C[C@H]2C[C@H]4[C@H](N(C)C)C(O)=C(C(N)=O)C(=O)[C@@]4(O)C(O)=C2C3=O)c1 [CL]

Data returned:
>138.88 µM
>125.56 µM
135.17 µM
>107.82 µM
62.89 µM
>134.63 µM
